# System name: human recombinant LRRK2 protein (Homo sapiens, UniProt Q5S007)
# Sequence (Q5S007 whole entry): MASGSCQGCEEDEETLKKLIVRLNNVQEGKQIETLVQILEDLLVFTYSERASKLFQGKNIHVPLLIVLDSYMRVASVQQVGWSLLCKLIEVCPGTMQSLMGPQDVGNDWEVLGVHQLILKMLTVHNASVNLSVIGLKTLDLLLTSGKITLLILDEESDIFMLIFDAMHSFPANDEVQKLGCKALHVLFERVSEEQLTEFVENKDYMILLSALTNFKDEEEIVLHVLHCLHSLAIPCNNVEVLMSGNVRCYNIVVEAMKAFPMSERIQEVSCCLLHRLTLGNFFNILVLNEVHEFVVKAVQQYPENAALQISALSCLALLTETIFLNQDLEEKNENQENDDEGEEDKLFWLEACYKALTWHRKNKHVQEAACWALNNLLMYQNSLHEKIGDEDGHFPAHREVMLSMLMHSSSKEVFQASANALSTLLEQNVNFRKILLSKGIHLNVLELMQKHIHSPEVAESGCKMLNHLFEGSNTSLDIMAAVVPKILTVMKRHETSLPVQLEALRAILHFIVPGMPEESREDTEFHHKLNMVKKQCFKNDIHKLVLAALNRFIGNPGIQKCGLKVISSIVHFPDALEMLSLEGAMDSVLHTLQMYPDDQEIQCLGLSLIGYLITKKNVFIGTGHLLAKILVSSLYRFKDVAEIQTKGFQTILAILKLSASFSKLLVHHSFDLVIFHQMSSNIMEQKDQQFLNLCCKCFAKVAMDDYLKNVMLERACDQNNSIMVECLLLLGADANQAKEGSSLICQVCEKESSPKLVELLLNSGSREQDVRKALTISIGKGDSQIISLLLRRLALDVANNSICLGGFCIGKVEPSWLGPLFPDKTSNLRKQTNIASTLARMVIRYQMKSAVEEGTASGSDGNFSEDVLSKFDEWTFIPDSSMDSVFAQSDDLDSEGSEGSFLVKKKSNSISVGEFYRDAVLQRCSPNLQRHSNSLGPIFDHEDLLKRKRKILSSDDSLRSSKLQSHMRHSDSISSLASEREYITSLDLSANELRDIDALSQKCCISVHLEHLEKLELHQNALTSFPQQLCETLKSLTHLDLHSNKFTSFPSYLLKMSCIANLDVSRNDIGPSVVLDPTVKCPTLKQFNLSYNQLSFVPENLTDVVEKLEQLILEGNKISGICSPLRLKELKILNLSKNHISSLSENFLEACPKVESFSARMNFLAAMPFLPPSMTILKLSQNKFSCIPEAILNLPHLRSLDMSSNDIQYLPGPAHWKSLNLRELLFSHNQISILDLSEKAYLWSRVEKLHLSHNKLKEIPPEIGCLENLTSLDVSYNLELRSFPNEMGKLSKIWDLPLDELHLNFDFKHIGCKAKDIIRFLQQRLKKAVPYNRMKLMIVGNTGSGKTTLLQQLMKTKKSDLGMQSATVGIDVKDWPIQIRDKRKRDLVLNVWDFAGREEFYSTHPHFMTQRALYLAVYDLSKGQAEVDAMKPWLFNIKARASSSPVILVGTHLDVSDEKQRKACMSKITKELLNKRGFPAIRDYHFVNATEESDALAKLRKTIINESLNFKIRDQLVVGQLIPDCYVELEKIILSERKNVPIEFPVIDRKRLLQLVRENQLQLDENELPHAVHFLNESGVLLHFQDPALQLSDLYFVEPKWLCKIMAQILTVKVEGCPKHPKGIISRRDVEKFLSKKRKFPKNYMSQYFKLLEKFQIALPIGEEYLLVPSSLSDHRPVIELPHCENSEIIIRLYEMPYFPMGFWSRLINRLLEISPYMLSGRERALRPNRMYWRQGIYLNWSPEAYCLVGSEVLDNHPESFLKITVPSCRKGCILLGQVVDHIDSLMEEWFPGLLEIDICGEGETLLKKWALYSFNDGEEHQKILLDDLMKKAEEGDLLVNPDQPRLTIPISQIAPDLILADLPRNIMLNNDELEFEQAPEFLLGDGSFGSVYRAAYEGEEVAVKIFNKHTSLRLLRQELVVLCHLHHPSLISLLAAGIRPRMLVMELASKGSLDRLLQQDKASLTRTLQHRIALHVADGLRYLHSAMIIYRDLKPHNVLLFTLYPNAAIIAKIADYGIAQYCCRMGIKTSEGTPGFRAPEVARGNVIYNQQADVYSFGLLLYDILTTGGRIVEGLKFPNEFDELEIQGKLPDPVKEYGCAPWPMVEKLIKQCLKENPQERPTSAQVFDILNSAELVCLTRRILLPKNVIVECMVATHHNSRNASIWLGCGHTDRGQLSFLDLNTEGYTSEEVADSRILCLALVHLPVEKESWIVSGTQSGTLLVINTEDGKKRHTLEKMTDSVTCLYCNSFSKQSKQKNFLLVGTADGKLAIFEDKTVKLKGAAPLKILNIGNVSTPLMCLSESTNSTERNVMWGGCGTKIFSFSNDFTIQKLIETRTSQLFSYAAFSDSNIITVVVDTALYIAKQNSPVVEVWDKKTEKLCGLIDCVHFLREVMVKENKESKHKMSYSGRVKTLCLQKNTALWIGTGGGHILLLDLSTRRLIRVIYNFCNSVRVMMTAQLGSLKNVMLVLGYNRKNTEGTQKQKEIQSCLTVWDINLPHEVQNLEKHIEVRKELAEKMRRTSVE
# Assay: LRRK2 kinase activity assay (ADP-Glo, LRRKtide peptide)
# Condition label: human recombinant LRRK2 wt, LRRKtide peptide and ATP, 1 h at 37° C.
Measurement kind: IC50

C[C@H]1CCOC[C@H](C)Oc2ccc3[nH]nc(c3c2)-c2cncc(c2)O1 :: < 0.1 µM
C[C@@H]1CCOC[C@H](C)Oc2ccc3[nH]nc(c3c2)-c2cncc(c2)O1 :: < 0.01 µM
C[C@H]1CCNC(=O)CCn2ncc(n2)-c2n[nH]c3ccc(cc23)O1 :: < 0.01 µM

For each listed entry, give its IC50.
1. C[C@H]1CCOCCCOc2ccc3[nH]nc(c3c2)-c2cnn1c2
2. c1cc2nc(c1)-c1n[nH]c3ccc(cc13)OCCCNCCO2
3. CC1CN(C)CCCOc2ccc3[nH]nc(c3c2)-c2cncc(c2)O1 (stereo not drawn)
4. C[C@H]1CCOC[C@H](C)Oc2cncc(n2)-c2n[nH]c3ccc(cc23)O1
5. O=C1CCn2ncc(n2)-c2n[nH]c3ccc(cc23)OC[C@H](F)CN1
6. c1nn2cc1-c1n[nH]c3cnc(cc13)OCCOCCOCC2

Data returned:
1. < 0.01 µM
2. < 0.01 µM
3. < 0.1 µM
4. < 0.1 µM
5. < 0.01 µM
6. < 0.1 µM

* * *

Hi there, I'd appreciate the recorded pIC50 for every entry that follows.
# System name: human recombinant LRRK2 protein (Homo sapiens, UniProt Q5S007)
# Assay: LRRK2 kinase activity assay (ADP-Glo, LRRKtide peptide)
# Condition label: human recombinant LRRK2 wt, LRRKtide peptide and ATP, 1 h at 37° C.
pIC50: −log10 of the molar value.

Consider the worked cases shown below.
C[C@H]1COc2ccc3[nH]nc(c3c2)-c2cnn(c2)CCCCCO1 [Example 112] :: > 8.00
C[C@@H]1CCOCC[C@H](C)n2ncc(n2)-c2n[nH]c3ccc(cc23)O1 [Example 103] :: > 8.00

For each listed entry, give its pIC50.
1. O=C1COc2cc(ccc2F)-c2n[nH]c3ccc(cc23)OCCCN1 [Example 138]
2. Cc1cc2[nH]nc3c2cc1OCCCNCCOc1cncc-3c1 [Example 188]
3. C[C@@H]1COCCn2cc(cn2)-c2n[nH]c3ccc(cc23)OCCO1 [Example 70]

Data returned:
1: > 7.00; 2: > 8.00; 3: > 7.00

* * *

# System name: human recombinant LRRK2 protein (Homo sapiens)
# Assay: LRRK2 kinase activity assay (ADP-Glo, LRRKtide peptide)
# Condition label: human recombinant LRRK2 wt, LRRKtide peptide and ATP, 1 h at 37° C.
Hi there, I'd appreciate the recorded IC50 for every entry that follows.

C[C@H]1CCOCCOCc2nc(cn2C)-c2n[nH]c3ccc(cc23)O1 :: < 100 nM

For each listed entry, give its IC50.
1. CC1Oc2cncc(c2)-c2n[nH]c3ccc(cc23)OCCCN(C)C1=O (stereo not drawn)
2. C[C@@H]1NC(=O)COc2cccc(c2)-c2n[nH]c3ccc(cc23)OC[C@H]1F
3. O=C1COc2cc(cc(C3CCCOC3)c2)-c2n[nH]c3ccc(cc23)OCCCN1 (stereo not drawn)

Data returned:
< 100 nM
< 100 nM
< 10 nM

For each listed entry, give its IC50.
1. C[C@@H]1CCOCC[C@@H](C)n2cc(cn2)-c2n[nH]c3ccc(cc23)O1
2. O=C1CCc2cncc(c2)-c2n[nH]c3ccc(cc23)OCCCN1
3. C[C@@H]1CCNC(=O)COc2cncc(c2)-c2n[nH]c3ccc(cc23)O1
4. c1cc2[nH]nc3c2cc1OCCCNCCOc1cc-3cc(C2CCCOC2)c1 (stereo not drawn)
5. C[C@@H]1C[C@H](C)OCCCOc2ccc3[nH]nc(c3c2)-c2cnn1c2
6. O=C1COc2cc(cc(N3CCCC3)c2)-c2n[nH]c3ccc(cc23)OCCCN1

Data returned:
1: < 10 nM; 2: < 10 nM; 3: < 100 nM; 4: < 10 nM; 5: < 100 nM; 6: < 10 nM

For each listed entry, give its IC50.
1. c1cc2[nH]nc3c2cc1OCCOCCCOc1cc-3cc(N2CCOCC2)c1
2. Cc1cc2[nH]nc3c2cc1OCCCNC(=O)COc1cncc-3c1
3. O=C1COc2nccc(n2)-c2n[nH]c3ccc(cc23)OCCCN1
4. C[C@H]1CCOCC[C@H](C)n2cc(cn2)-c2n[nH]c3ccc(cc23)O1
5. C[C@@H]1CCOc2ccc3[nH]nc(c3c2)-c2cnn(c2)[C@H](C)CCO1

Data returned:
1: < 10 nM; 2: < 100 nM; 3: < 10 nM; 4: < 10 nM; 5: < 10 nM
